Target: T1, human GPVI extracellular region-human Fc fusion protein (hGPVI-hFc) (human)
T1 construct: Expressed in COS-1, purified on Protein A; also called GPVI-HHH-hFc; hGPVIHHH-hFc
T1 sequence (chain, as listed by the source limits assumed): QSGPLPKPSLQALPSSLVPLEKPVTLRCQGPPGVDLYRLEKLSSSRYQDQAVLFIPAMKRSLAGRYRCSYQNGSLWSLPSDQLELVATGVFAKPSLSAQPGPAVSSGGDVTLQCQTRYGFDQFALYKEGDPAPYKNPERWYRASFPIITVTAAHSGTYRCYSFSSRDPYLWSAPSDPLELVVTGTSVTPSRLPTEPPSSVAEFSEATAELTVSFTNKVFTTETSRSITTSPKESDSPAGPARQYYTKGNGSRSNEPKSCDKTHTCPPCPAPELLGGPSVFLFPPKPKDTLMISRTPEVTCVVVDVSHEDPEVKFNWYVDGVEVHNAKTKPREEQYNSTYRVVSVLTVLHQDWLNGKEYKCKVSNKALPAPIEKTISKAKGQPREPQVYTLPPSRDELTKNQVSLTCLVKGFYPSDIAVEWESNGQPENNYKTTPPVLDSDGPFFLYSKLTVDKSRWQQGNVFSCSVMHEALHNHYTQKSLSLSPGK
Assay: competition ELISA on hGPVI-hFc plate; competitor: peroxidase-labelled F1232-37-2; +++ more than 50%, ++ 30-50%, + 10-30% inhibition
Attribute: percent inhibition

Some entries whose results are on file:
F1249-20-1 (antibody, V domains shown) VH: QVQLQQSGAELVRPGVSVKISCKGSGYTFTDYAMHWVKQSHAKSLEWIGVISTYYGDTSYNQKFKGKATMTVDKSSSTAYMELARLTSEDSAIYYCARAEDYDPWFAYWGQGTLVTVSA VL: DIVLTQSPASLAVSLGQRATISCRASESVDSYGNSFMYWYQQKPGQPPKLLIYRASNLESGIPARFSGSGSRTDFTLTINPVEADDVATYYCQQSDEDPLTFGAGTKLELKR : 30 to 50%
F1251-1-1 (antibody, V domains shown) VH: QVNLLQSGAALVKPGASVKLSCKASGYTFTDYYIHWVKQSHGKSLEWIGYINPNSGYTNYNEKFKSKATLTVDKSTNTAYMELSRLTSEDSATYYCTRCNSGYGDWFAYWGQGTLLTVSS VL: DIQMTQSPPVLSASVGDRVTLSCKASQNINKNLDWYQQKHGEAPKLLIYYTNNLQTDIPSRFSGSGSGTDYTLTISSLQPEDVATFYCYQYNSGPGTFGAGTKLELKR : 10 to 30%
F1245-7-1 (antibody, V domains shown) VH: QVQLQQPGAELVKPGASVKLSCKASGYTFTSYWMHWVKQRPGQGLEWIGMIHPNSGSTNYNEKFKSKATLTVDKSSSTAYMQLSSLTSEDSAVYYCASPVTAVVEYYFDYWGQGTTLTVSS VL: SIVMTQTPKFLLVSAGDRVTITCKASQSVSNDVAWYQQKPGQSPKLLIYYASNRYTGVPDRFTGSGYGTDFTFTISTVQAEDLAVYFCQQDYSSLTFGSGTKLEIKR : 10 to 30%
F1245-5-1 (antibody, V domains shown) VH: QVQLQQPGAELVKPGASVKLSCKASGYTFISYWMHWVKQRPGQGLEWIGMIHPNSGSTHYNEKFKSKATLTVDKSSSTAYMQLSSLTSEDSAVYYCARGGVTPVAYWGQGTLVTVSA VL: SIVMTQTPKFLLVSAGDRVTITCKASQSVSNDVAWYQQKPGQSPKLLIYYASNRYTGVPDRFTGSGYGTDFTFTISTVQAEDLAVYFCQQDYSSPWTFGGGTKLEIKR : 30 to 50%
F1245-4-1 (antibody, V domains shown) VH: QVQLQQPGAELVKPGASVKLSCKASGCTFTSYWMHWVKQRPGQGLEWIGMIHPNSDNTNYNEKFKSKATLTVDKSSSTAYMHLSSLTSEDSAVYYCATHYYDYVDYWGQGTTLTVSS VL: NIVMTQTPKFLLVSAGDRVTITCKASQSVSNDVAWYQQKPGQSPKLLIYYASNRYTGVPDRFTGSGYGTDFTFTISTVQAEDLAVYFCQQDYSSPWTFGGGTKLEIKR : 30 to 50%

Inquiry: Record request: percent inhibition value, item F1249-5-1 (antibody, V domains shown) VH: QVQLQQPGAELVKPGASVKLSCKASGYTFTSYWMHWLKQRPGQGLEWIGMIHPNSDITNYNEKFKNKATLTVAKSSSTAYMQLSSLTSEDSAVYYCARLGDYYAMDYWGQGTSVTVSS VL: SIVMTQTPKFLLVSAGDRVTITCKASQSVSNDVTWYQQKPGQSPKLLIYYASNRYTGVPDRFTGSGYGTDFTFTISTVQAEDLAVYFCQQDYSSPPTFGGGTKLEIKR
Reply text: 30 to 50%

Inquiry: Record request: percent inhibition value, item F1246-1-1 (antibody, V domains shown) VH: EVQLVESGGDLVKPGGSLKLSCAASGFTFSSYGMSWVRQTPDKRLEWVATISNGGTYTYYPDSVKGRFTISRDNAKNTLYLQMSSLKSDDTAMYYCGRLRDYYAMDYWGQGTSVTVSS VL: DIVLTQSPASLAVSLGQRATISCRASESVDSYGNSFMHWYQQKPGQPPKLLIYRASNLESGIPARFSGSGSRTDFTLTINPVEADDVATYYCQQSNEDPWTFGGGTKLEIKR
Reply text: 10 to 30%
